target: Casein Kinase 2 A1 kinase (Homo sapiens)
Sequence (P68400 whole entry): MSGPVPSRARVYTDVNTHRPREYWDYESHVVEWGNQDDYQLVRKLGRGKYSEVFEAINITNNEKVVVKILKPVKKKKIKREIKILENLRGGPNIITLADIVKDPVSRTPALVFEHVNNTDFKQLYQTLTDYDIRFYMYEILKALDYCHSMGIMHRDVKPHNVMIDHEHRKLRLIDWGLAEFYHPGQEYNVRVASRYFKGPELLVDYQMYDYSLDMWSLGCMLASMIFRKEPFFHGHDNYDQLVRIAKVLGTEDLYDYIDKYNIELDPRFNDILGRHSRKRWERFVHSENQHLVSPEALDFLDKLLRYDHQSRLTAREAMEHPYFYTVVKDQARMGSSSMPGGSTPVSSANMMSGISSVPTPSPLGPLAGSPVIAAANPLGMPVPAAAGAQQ
Measured Metric: IC50 (nM)
Numbers only, in nM.

Below, 5 compounds whose answers are already recorded.
> print(dat)
                                   compound  measured.metric  unit.of.measure  assay.value
1  CCc1cc(Nc2nc(N3CCC(c4ccccc4F)C3)nn3cccc23)[nH]n1 (centres unmarked)             IC50               nM          154
2  Cc1cc(Nc2nc(N3CCC(c4ccccc4)C3)nn3cccc23)[nH]n1 (centres unmarked)             IC50               nM          294
3  Cc1cc(Nc2nc(N3CCCC3c3cccnc3)nn3cccc23)[nH]n1 (centres unmarked)             IC50               nM         6070
4  c1ccc([C@H]2C[C@@H]2c2cc(Nc3nc(N4CCC(c5cccnc5)C4)nn4cccc34)[nH]n2)cc1 (some centres unmarked)             IC50               nM        11300
5  Cc1cc(Nc2nc(N3CCC(c4ccncc4)CC3)nn3cccc23)[nH]n1             IC50               nM          243

Give one value of IC50 per listed compound.
1. CC1C[C@@H]1c1cc(Nc2nc(N3CCC(c4cccnc4)C3)nn3cccc23)[nH]n1 (some centres unmarked)
2. COc1ncccc1C1CCN(c2nc(Nc3cc(C)n[nH]3)c3cccn3n2)C1 (centres unmarked)
3. COc1ccc(C2CCN(c3nc(Nc4cc(C)n[nH]4)c4cccn4n3)C2)cn1 (centres unmarked)

131
349
1380

----------
molecular target: Casein Kinase 2 A2 kinase (Homo sapiens, UniProt P19784)
Sequence (P19784 whole entry): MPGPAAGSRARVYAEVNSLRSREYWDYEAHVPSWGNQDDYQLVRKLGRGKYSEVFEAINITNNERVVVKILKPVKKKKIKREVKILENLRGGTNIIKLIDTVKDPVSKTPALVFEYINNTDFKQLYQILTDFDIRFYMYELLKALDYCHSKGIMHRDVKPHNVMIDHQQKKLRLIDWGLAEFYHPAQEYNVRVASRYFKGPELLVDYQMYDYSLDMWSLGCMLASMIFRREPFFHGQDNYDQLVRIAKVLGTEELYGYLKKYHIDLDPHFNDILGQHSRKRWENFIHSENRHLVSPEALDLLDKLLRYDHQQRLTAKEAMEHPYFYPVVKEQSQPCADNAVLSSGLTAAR
Measured Metric: pIC50
One number for each entry, as −log10 of the molar value.

Below, 3 compounds whose answers are already recorded.
> print(dat)
                                   compound  assay.value
1  Cc1cc(Nc2nc(N3CCCC3c3cccnc3)nn3cccc23)[nH]n1 (centres unmarked) [Example 209]         5.96
2  c1cncc(C2CCN(c3nc(Nc4cc(C5CC5)n[nH]4)c4cccn4n3)C2)c1 (centres unmarked) [Example 181]         8.22
3  COc1ccc(C2CCN(c3nc(Nc4cc(C)n[nH]4)c4cccn4n3)C2)cn1 (centres unmarked) [Example 212]         7.00

Give one value of pIC50 per listed compound.
1. c1ccc(-c2cc(Nc3nc(N4CCC(c5cccnc5)C4)nn4cccc34)[nH]n2)cc1 (centres unmarked) [Example 174]
2. CCc1cc(Nc2nc(N3CCC(c4ccccc4F)C3)nn3cccc23)[nH]n1 (centres unmarked) [Example 171]

7.04
7.96

----------
molecular target: kinase domain of the human TrkA receptor (Homo sapiens, UniProt P04629); construct: The kinase domain of the human TrkA receptor is expressed in Sf9 insect cells as a histidine (His)-fusion protein; His; experiment: TrkA tyrosine kinase assay (33P, polyGluTyr substrate); details: 30 uM ATP, 0.1 mg/ml PGT
Sequence (P04629 510-781 limits assumed): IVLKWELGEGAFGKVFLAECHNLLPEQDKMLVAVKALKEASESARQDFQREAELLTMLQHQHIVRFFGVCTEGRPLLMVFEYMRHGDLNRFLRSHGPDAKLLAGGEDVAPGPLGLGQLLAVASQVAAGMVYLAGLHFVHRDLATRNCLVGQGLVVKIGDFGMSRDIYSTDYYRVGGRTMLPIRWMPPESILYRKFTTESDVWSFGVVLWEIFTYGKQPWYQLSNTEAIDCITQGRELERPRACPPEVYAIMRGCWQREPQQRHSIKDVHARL
Note to self: IC50 under 1 nM means rule met, ties and anything higher get rule not met.

Field: example entries. Status: answers known.
> print(dat)
                                   molecule           cat
1  Cc1cc(Nc2nc(N3CCOCC3)nn3cccc23)[nH]n1 [Example 95]  rule not met
2  CC(C)(C)c1cc(Nc2nc(N3CCC(N)CC3)nn3cccc23)[nH]n1 [Example 21]  rule not met
3  NC1CCN(c2nc(Nc3ccn[nH]3)c3cccn3n2)CC1 [Example 4]  rule not met
4  O=C(Cc1cccs1)NC1CCN(c2nc(Nc3cc(C4CC4)n[nH]3)c3cccn3n2)CC1 [Example 49]      rule met
5  NCC1CCN(c2nc(Nc3cc(-c4ccccc4)n[nH]3)c3cccn3n2)CC1 [Example 97]  rule not met

Does the reported IC50 of c1ccc(CNC2CCN(c3nc(Nc4cc(C5CC5)n[nH]4)c4cccn4n3)CC2)cc1 [Example 8] stay below 1 nM?
rule met
